# target_system: T1, mouse tissue factor pathway inhibitor (TFPI) (mouse, UniProt O54819 29-289, limits assumed)
# T1 construct: bought; also called mTFPI; murine TFPI
# T1 sequence (looked up): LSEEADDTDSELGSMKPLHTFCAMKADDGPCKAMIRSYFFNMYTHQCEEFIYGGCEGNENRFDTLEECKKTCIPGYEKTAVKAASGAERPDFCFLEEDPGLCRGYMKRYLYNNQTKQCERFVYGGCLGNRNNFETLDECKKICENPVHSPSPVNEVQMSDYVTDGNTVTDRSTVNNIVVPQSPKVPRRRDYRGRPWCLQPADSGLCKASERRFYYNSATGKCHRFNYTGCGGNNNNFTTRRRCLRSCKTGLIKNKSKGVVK
# protocol_notes: competitive ELISA
endpoint_label: variant/wild-type
# do not omit the unit; it follows the number

Supply recorded variant/wild-type for 2A8 HC_S55A (Fab, V domains shown) VH: QVQLVESGGGLVQPGGSLRLSCAASGFTFRSYGMSWVRQAPGKGLEWVSSIRGSASSTYYADSVKGRFTISRDNSKNTLYLQMNSLRAEDTAVYYCARKYRYWFDYWGQGTLVTVSS VL: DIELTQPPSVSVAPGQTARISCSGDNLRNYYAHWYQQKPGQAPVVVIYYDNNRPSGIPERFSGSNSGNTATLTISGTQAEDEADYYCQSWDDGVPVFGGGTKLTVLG here.
1.2 ratio

Identify measured variant/wild-type associated with 2A8 LC_D92T (Fab, V domains shown) VH: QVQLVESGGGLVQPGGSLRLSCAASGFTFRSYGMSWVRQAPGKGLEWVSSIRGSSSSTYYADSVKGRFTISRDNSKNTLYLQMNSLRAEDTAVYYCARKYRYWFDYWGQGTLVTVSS VL: DIELTQPPSVSVAPGQTARISCSGDNLRNYYAHWYQQKPGQAPVVVIYYDNNRPSGIPERFSGSNSGNTATLTISGTQAEDEADYYCQSWDTGVPVFGGGTKLTVLG
1.2 ratio

***
State its variant/wild-type for this binder: 2A8 LC_D91K (Fab, V domains shown, also called 2A8-15) VH: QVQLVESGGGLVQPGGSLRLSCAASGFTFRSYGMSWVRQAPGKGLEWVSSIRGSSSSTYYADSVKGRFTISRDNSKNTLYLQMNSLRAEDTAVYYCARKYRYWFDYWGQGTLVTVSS VL: DIELTQPPSVSVAPGQTARISCSGDNLRNYYAHWYQQKPGQAPVVVIYYDNNRPSGIPERFSGSNSGNTATLTISGTQAEDEADYYCQSWKDGVPVFGGGTKLTVLG
1.4 ratio
